meta.source: the DeepSol protein solubility set

method: soluble on expression in E. coli; label from the status in PepcDB or PDB records
value type: soluble on expression in E. coli

MSSFHATTIFAVQHKGRSAMSGDGQVTFGQAVVMKHTARKVRKLFNGKVLAGFAGSVADAFTLFEKFEAKLEEYNGNLKRAAVELAKEWRSDKVLRKLEAMLIVMNQDTLLLVSGTGEVIEPDDGILAIGSGGNYALAAGRALKKHAGESMSASEIARAALETAGEICVYTNDQIILEELE | soluble
TLAAKAAEIHPTSLDTRLDVAAAPAELQQVAQSFNAMLERLDDGYQRLQQFSADLAHEIRTPIGSLMGHGQVALRQPRSNEEYQALIASNQEELERIARMVESILFLARADDVRAAVERSRLDLGEELRRQAEYFEGLAEERGLSLDVQVSGQLRADPQLFRRALSNLLANAIRYASADSLIEVRGLRRSGEFLLSVENACDRLPAEPLSRLFDRFYRGDAARSDAQSSGLGLAIVQAIMRLHGGRAEASAPAPGRIRFDLAFPAQD | not soluble
GPGSMNHLAGKIHVVQTPEEGRRFSLEQVVLPVLGNGAERLVSPDGKMREASERLAQELQIEGLMKMKAAPPATYRRLVVRPRDFTYCLFDDERGWCWESNNEAPIRPQLWEDQEGIMRQLSPLSVATGKNIIARNGIRGAEQRSHFLKAARRSGMTCVLRMTLPRGSAVTSALREAFQFATLDPGVIFHLLR | not soluble
GSHMTAEADTSSELAKKSKEVFRKEMSQFIVQCLNPYRKPDCKVGRITTTEDFKHLARKLTHGVMNKELKYCKNPEDLECNENVKHKTKEYIKKYMQKFGAVYKPKEDTELE | soluble
MDNIVTQNIKFESEPNYYLRGYHLFDISPLNGLKCEITDEFETDKIHLKIKLDWDQQEIKKITGFIQLSYDGHQLKPIDSNFDKRGGICIMTVPKYINAYRWSFSFDLKLHRYPAKPPQISHDLNPQVRSYDTMFEPSRKHDAVLLIGEKKLHVNKAFLSYHSDYFCDLFAEKFDEKNGIPIENVTYENFGLLMSIIYPEAAFSNHQNAEVLLELGNRFKIPAVMRHVENQIIRDTKFPNERLIFLADKYELQKLLAMEIQKMESFDQAKKFKGSDDYSQLSDATKAKILDRLIELS | not soluble

Record request: soluble on expression in E. coli value, item MGSDKIHHHHHHMKIMVITKNILSETAFQNRLQHLDHQVFCTTCLIGEIKESHLFYRKFDAIILSETIPRKEQYLYLKELARVKTPLFLRSEDIPTSEELSISYQYGILNWLRLDATLDTLRENLLLAELNKPIQREDEKLDVEGIKLTAAERALLAVLYSTPKEHLPMERLCKLIYDTEETANNRKKMTKQLTKLNKKIQVGGFKKQGIQNTRYKGYKLHPQLLPYIGELFT
not soluble

Again, but for AHKLFIGGLPNYLNDDQVKELLTSFGPLKAFNLVKDSATGLSKGYAFCEYVDINVTDQAIAGLNGMQLGDKKLLVQRASVGAKNA
soluble

Again, but for MGSDKIHHHHHHMRNPKPQEWKTEDYSQKKIADYKAFNFVDGEGVRNSLYVSGCLFACEGCFNKAVQNFNYGTPFTESLMNQIIEDLSHDYVQGLTLLGGEPFLNTDVCLSVVKRVRETFGSAKDIWSWSGYTFEELLLETPDKLELLHSIDILVDGRFELAKRNLNLQFRGSSNQRIIDVPKSLAAGKAVIWEKCHDAETSYEQIKKSI
not soluble
